Recorded values, source patent US10144742B2.

Biological target: UniProt P43490
Sequence (P43490 whole entry): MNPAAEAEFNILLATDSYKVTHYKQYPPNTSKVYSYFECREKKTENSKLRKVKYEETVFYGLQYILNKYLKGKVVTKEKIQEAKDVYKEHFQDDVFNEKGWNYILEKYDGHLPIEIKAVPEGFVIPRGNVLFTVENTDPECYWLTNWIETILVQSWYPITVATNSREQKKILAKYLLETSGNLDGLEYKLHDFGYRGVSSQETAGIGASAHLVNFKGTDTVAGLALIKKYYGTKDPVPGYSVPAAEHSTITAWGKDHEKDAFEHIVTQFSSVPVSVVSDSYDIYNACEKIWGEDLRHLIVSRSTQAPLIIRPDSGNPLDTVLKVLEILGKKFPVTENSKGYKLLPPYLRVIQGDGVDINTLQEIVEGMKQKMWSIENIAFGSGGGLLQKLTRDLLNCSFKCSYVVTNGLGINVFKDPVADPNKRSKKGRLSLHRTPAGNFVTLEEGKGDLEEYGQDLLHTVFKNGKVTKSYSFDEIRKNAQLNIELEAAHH
Assay: NAMPT enzyme assay (TR-FRET/HTRF, BodiPY ligand, anti 6His-Tb)
Type: binding
Conditions: NAMPT inhibition at compound concentration 1 μM; read-out: Percent Inhibition

smiles.data | value.comparator | inhibition at 1 µM [%]
COCC(COC)Oc1nc2ccc(C(=O)NCCCc3ncc[nH]3)cc2nc1-c1ccc(F)cc1 | = | 97
COc1ccc(F)c(-c2nc3cc(C(=O)NCCCc4ncc[nH]4)ccc3nc2OC(C)C)c1 | = | 94
O=C(NCc1nc2cnccc2[nH]1)c1ccc2nc(-c3ccc(F)cc3)c(-c3ccc(F)cc3)nc2c1 | > | 99
O=C(NCCCc1ncc[nH]1)c1ccc2nc(OCCc3ccccc3)c(-c3ccc(F)cc3)nc2c1 | = | 97
O=C(NCCCc1ncc[nH]1)c1ccc2nc(OCCc3cn[nH]c3)c(-c3ccc(F)cc3)nc2c1 | > | 99
O=C(NCCCc1ncc[nH]1)c1ccc2nc(-c3ccc(Cl)s3)c(-c3ccc(F)cc3)nc2c1 | = | 77
Cc1cnn(-c2nc3ccc(C(=O)NCCCc4ncc[nH]4)cc3nc2-c2ccc(F)cc2)c1 | = | 84
O=C(NCCCc1ncc[nH]1)c1ccc2nc(OCC3CCOCC3)c(-c3ccc(F)cc3)nc2c1 | > | 99
O=C(NCCCc1ncc[nH]1)c1ccc2nc(-c3ccc(F)cc3)c(-c3cc(OC(F)(F)F)ccc3Cl)nc2c1 | = | 79
O=C(NCCCc1ncc[nH]1)c1ccc2nc(-c3ccc(F)cc3)c(-c3ccc(F)c(F)c3)nc2c1 | = | 95
CC(C)Oc1nc2ccc(C(=O)NCCCc3ncc[nH]3)cc2nc1-c1cc(C#N)ccc1F | = | 95
COc1cc(-c2nc3cc(C(=O)NCc4ccc5nccn5c4)ccc3nc2OC(C)C)ccc1F | = | 99
CC(C)Oc1nc2ccc(C(=O)NCCc3cncn3C)cc2nc1-c1ccc(F)cc1 | = | 76
CC(C)c1nc2ccc(C(=O)NCCCc3ncc[nH]3)cc2nc1-c1ccc(F)cc1 | = | 77
N#Cc1cccc(-c2nc3cc(C(=O)NCCCc4ncc[nH]4)ccc3nc2-c2ccc(F)cc2)c1 | = | 81
